# Target under test: T1, biotinylated recombinant mouse IL-12Rβ2 (mouse, UniProt P97378 24-637, random biotinylated)
# T1 construct: Recombinant protein produced in-house, biotinylated; also called mIL-12RB2; mouse IL-12RB2
# T1 sequence: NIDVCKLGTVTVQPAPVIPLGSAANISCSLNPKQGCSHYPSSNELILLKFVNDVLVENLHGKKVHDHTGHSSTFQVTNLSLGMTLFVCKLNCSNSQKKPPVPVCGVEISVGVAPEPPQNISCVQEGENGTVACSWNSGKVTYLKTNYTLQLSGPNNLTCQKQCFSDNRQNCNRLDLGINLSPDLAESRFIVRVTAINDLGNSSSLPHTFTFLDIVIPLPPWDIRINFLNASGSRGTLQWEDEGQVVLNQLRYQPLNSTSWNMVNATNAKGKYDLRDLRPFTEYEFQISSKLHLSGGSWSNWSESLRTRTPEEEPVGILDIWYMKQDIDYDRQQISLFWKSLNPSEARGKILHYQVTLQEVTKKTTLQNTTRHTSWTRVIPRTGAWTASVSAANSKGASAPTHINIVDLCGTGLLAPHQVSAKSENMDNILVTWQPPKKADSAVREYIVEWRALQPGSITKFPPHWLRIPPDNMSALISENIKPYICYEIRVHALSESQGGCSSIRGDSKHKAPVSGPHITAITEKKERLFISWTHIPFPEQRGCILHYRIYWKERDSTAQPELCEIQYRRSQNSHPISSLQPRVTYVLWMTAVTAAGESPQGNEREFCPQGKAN
# Assay name: BLI (Octet), periplasmic extract on biotinylated mIL-12Rβ2 on streptavidin tips, 1:1 model
Parameter: koff (s⁻¹)
Provide the reading as a plain figure in s⁻¹.

Known results for binders:
anti-IL-12Rβ2 VHH clone 21061 (VHH, not shown: small tags and cut ends, tested as periplasmic extract; also called 3CRHM85) VHH: QVQLQESGGGLVQPGGSLRLSCAASRRTFSKHAMAWFRQAPGKEREFVAVVRWSGIITYYADSVKGRFTISRDDAKNTVYLQMDSLKPEDTAVYYCAAGDYRGNGYYVPGMYDYWGQGTQVTVSS	0.00474
anti-IL-12Rβ2 VHH clone 21051 (VHH, not shown: small tags and cut ends, tested as periplasmic extract; also called 3CAHM40) VHH: QVQLQESGGGSVQAGGSLRLSCAVSGRTVSDYAMGWFRQAPGKEREFVAAMSSSETTVYPNSMKGRITISRDNAKNAVYLQLNALKPEDTAVYYCSMGPIATFQGLARQNEYHYWGQGTQVTVSS	0.00644
anti-IL-12Rβ2 VHH clone 21065 (VHH, not shown: small tags and cut ends, tested as periplasmic extract; also called 3CRHM240) VHH: QVQLQESGGGSVQAGGSLRLSCAVSGRTVSDYAMGWFRQAPGKEREFVVAMSSSETTVYTNSVKGRITISRDNAKNAVYLQMNALKPEDTAVYYCSMGPITTFQGLARQNEYHYWGQGTQVTVSS	0.00483

Query: koff; subject: anti-IL-12Rβ2 VHH clone 21058 (VHH, not shown: small tags and cut ends, tested as periplasmic extract; also called 3CRHM49) VHH: QVQLQESGGGLVQAGGSLRLSCAASGRTFSNYAMAWFRQAPGTEREFVAGLSGSGGDTAFYDNSVMGRFTISRDSAKNTMWLQINNLKPEDTAVYYCAAATHVVVSYGLVRRRGTYDYWGQGTQVTVSS
Result: 0.00583

Query: # lookup: koff of anti-IL-12Rβ2 VHH clone 21052 (VHH, not shown: small tags and cut ends, tested as periplasmic extract; also called 3CRHM12) VHH: QVQLQESGGGSVQAGGSLRLSCAVSGRTVSDYAMGWFRQAPGKEREFVAAMSSSETTVYPNSVKGRITISRDNAKNAVYLQMNALKPEDTAVYYCSMGPIVTFQGLARQNEYHYWGQGTQVTVSS
Result: 0.00599

Query: Tell me the measured koff of anti-IL-12Rβ2 VHH clone 21062 (VHH, not shown: small tags and cut ends, tested as periplasmic extract; also called 3CRHM99) VHH: QVQLQESGGGLVQPGGSLRLSCAASGISSSRLHVGWFRQSPGKEREFVAAISLSGGTQAYTDSVKGRFTISGDNVKNTAYLQMNSLRPEDTAVYYCAARERFIWTWSDLTYDYWGQGTQVTVSS , please.
Result: 0.00671

Query: Need koff of anti-IL-12Rβ2 VHH clone 21060 (VHH, not shown: small tags and cut ends, tested as periplasmic extract; also called 3CRHM73) VHH: QVQLQESGGGLVQAGGSLSLSCAASGSAFRLNFMGWYRQAPGKQRELVAAINSGGTEIYHDSVKGRFTISRDNADSTVWLQMNSLKPDDTAVYYCAADRGISWSKLAGGMDYWGKGTQVTVSS , thanks.
Result: 0.00605

Query: Suppose we examine the binder anti-IL-12Rβ2 VHH clone 21055 (VHH, not shown: small tags and cut ends, tested as periplasmic extract; also called 3CRHM20) VHH: QVQLQESGGGLVQAGGSLRLSCAASGRTFSKSTMGWFRQTPGKEREFVAAITWTDTEVYANSVKDRFTISRDNAKNTFYLQMHSLKLEDTAVYYCAGDRYGSSRDSVFSSPTNYPYWGQGTQVTVSS ; what koff value has been reported?
Result: 0.0059

Query: Field request: koff | item: anti-IL-12Rβ2 VHH clone 21053 (VHH, not shown: small tags and cut ends, tested as periplasmic extract; also called 3CRHM14) VHH: QVQLQESGGGLVQAGGSLRLSCAASGRTFSNYAMAWFRQAPGTEREFVAGLSGSGGDTEFYDDSVKGRFAISRDSAKNTVWLQMNSLKPEDTAVYYCAAATHVVVHYGLVRRRGTYDYWGQGTQVTVSS
Result: 0.00483

Just for reference, patent US20260209362A1 is where these values come from.
